B1: DLC1 (parent)
chain: NDDSADYQHFLQDCVDGLFKEVKE

Variants of: B1
Experiment: protein stability index of a GFP-peptide fusion (GPS, HEK-293T) (PSI 1-6); higher = more stable;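 further: lentivirally expressed fusions sorted by FACS into six bins by GFP to DsRed ratio, PSI derived from sequencing read proportions per bin multiplied by bin number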
Details: c terminus: a fixed tail appended
For each entry below, report its protein stability index value.
One number for each entry.

sequence.change	reported.measurement
K23V	2.05

Hey, quick one: what's protein stability index for each of these?
1. V22D
2. K23G
3. C14H
4. E21H
5. D3G
6. F10I
7. D13I

[5.46, 4.37, 5.11, 2.42, 2.23, 1.78, 1.84]
